Numbers sourced from patent US20260137701A1.

target or test system: recombinant DNMT1 (Homo sapiens, UniProt P26358)
Sequence (P26358 whole entry): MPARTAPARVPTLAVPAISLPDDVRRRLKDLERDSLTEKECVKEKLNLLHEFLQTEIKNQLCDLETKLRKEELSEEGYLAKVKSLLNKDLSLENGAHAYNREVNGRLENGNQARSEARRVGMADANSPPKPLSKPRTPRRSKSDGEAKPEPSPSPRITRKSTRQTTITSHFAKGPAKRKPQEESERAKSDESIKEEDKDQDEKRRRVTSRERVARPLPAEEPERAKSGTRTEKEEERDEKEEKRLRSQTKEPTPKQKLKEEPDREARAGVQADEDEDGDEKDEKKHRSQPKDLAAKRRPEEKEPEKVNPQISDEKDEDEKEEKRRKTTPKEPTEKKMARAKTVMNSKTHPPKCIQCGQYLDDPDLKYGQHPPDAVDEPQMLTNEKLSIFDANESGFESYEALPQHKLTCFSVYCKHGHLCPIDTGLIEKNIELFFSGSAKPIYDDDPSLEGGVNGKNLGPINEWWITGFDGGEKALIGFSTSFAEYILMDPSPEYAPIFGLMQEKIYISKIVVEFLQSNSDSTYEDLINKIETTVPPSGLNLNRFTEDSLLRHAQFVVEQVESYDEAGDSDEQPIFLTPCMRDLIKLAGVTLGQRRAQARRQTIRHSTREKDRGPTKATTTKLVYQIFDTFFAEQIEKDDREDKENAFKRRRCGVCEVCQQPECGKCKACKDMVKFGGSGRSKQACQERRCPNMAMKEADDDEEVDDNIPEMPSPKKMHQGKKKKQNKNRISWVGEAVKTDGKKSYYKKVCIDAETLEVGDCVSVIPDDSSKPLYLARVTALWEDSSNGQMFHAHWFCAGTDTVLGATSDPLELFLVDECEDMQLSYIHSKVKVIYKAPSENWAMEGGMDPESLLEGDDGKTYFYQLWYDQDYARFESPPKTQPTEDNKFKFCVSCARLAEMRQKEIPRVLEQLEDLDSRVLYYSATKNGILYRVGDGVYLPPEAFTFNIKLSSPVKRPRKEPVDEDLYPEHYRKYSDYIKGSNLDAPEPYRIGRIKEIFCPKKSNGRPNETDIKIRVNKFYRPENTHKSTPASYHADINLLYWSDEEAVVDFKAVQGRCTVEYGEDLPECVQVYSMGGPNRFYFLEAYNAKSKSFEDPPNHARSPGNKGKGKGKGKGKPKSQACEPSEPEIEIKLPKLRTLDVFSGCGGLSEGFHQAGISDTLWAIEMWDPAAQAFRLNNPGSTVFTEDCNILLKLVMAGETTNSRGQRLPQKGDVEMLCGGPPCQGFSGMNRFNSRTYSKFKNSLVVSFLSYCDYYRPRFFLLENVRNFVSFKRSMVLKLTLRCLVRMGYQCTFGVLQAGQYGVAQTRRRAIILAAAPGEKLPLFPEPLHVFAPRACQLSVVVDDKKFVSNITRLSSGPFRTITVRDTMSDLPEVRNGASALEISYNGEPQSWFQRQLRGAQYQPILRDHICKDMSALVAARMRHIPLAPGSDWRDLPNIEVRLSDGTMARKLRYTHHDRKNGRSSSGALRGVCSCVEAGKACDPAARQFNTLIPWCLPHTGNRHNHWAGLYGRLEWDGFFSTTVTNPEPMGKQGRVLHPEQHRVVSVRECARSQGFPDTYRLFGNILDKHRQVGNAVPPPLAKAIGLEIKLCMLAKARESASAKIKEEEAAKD
protocol details: DNMT1 enzyme kinetic (activity) assay, 3H-SAM filter
test parameters: at higher concentration; read-out: IC50, inhibits DNMT1 activity
metric name: IC50

// returns reported IC50 for input CC(CCC[C@@H](C)[C@H]1CC[C@H]2[C@@H]3CC=C4C[C@@H](O)CC[C@]4(C)[C@H]3CC[C@]12C)C(=O)O (stereo partly drawn) [CA, 3β-hydroxy-5-cholestenoic acid]
9.13 µM

###

target or test system: recombinant DNMT3a (Homo sapiens, UniProt Q9Y6K1)
Sequence (Q9Y6K1 whole entry, looked up): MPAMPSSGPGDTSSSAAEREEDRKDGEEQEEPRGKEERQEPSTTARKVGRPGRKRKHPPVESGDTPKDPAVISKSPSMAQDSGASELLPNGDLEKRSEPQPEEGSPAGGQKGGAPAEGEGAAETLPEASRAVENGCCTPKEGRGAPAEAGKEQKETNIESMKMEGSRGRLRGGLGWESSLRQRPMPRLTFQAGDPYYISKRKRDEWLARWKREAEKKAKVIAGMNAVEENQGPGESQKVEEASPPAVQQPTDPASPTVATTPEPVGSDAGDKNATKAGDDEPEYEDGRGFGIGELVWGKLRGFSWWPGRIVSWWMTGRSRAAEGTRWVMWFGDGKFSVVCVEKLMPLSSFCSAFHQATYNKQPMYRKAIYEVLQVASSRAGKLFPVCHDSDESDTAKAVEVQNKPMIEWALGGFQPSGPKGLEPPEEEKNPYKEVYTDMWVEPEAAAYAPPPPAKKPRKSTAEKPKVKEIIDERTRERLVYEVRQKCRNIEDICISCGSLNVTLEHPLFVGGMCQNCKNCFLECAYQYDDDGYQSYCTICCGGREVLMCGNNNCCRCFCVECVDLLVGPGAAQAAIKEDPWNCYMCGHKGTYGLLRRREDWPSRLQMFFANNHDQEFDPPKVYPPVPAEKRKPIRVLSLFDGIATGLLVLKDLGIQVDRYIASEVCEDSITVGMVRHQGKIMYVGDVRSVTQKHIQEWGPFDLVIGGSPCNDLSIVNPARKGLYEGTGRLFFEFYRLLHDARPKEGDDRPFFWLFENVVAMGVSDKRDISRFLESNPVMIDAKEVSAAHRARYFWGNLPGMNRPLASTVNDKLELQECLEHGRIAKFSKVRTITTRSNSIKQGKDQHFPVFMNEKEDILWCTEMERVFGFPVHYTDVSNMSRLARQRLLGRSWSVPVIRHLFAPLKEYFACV
protocol details: DNMT3a enzyme kinetic (activity) assay, 3H-SAM filter
test parameters: read-out: IC50, inhibits DNMT3a activity
metric name: pIC50
Please note pIC50 is a logarithmic value: minus log10 of concentration in mol/L. Answer with that number alone.

Give the measured pIC50 of CC(CCC[C@@H](C)[C@H]1CC[C@H]2[C@@H]3CC=C4C[C@@H](O)CC[C@]4(C)[C@H]3CC[C@]12C)C(=O)O (stereo partly drawn) [CA, 3β-hydroxy-5-cholestenoic acid] .
5.08

###

target or test system: recombinant DNMT3b (Homo sapiens, UniProt Q9UBC3)
protocol details: DNMT3b enzyme kinetic (activity) assay, 3H-SAM filter
test parameters: read-out: IC50, inhibits DNMT3b activity
metric name: IC50 (µM)
# unit: µM | format: bare number

// map CC(CCC[C@@H](C)[C@H]1CC[C@H]2[C@@H]3CC=C4C[C@@H](O)CC[C@]4(C)[C@H]3CC[C@]12C)C(=O)O (stereo partly drawn) [CA, 3β-hydroxy-5-cholestenoic acid] to recorded IC50 (system: recombinant DNMT3b (Homo sapiens, UniProt Q9UBC3))
4.89
